These entries and their values trace back to patent US10040838B2.

Study system: human CRHR2 (Homo sapiens)
Construct: expressed in transfected cells
Test details: cAMP assay in h-CRHR2 transfected SK-N-MC cells
Format: cell-based
Cond: Table 13; h-SCP control pA50 minus test compound pA50 within same assay batch
No end group written: not given here.
Recorded endpoint: Log DR

(A) TCFTLSLDVPTNIMNLLFNIAKAKNLRAQAAANAHLMAQI-NH2 [SEQ ID NO: 3]
(B) TKFTLSCDVPTNIMNLLFNIAKAKNLRAQAAANAHLMAQI-NH2 [SEQ ID NO: 8]
**Query** Smaller Log DR value? Options are A and B Answer = label.
**Result** A
(A: 0.72, B: 2.86)

(P) TKFTLSLDVPTNIMNLCFNIAKAKNLRAQAAANAHLMAQI-NH2 [SEQ ID NO: 18]
(Q) TKFTLSLDVPTNIMNLLFNICKAKNLRAQAAANAHLMAQI-NH2 [SEQ ID NO: 22]
(R) TKFTLSLDVPTNIMNLLFNIAKAKNLRAQACANAHLMAQI-NH2 [SEQ ID NO: 32]
**Query** Order the items by recorded Log DR; the first position goes to the largest value. Would you mind listing the labels in the order requested?
**Result** P, Q, R

(A) TKFTLSLDVPTNIMNLLFNIACAKNLRAQAAANAHLMAQI-NH2 [SEQ ID NO: 23]
(B) CKFTLSLDVPTNIMNLLFNIAKAKNLRAQAAANAHLMAQI-NH2 [SEQ ID NO: 2]
(C) TKFTLSLDVPTNIMNLLFNIAKAKNLRAQAACNAHLMAQI-NH2 [SEQ ID NO: 33]
**Query** Number of substances to sort: 3. Sort criterion: Log DR, ascending. Please respond with the labels ordered as the question requires.
**Result** C, B, A

* * *

Study system: human CRHR2 (Homo sapiens, UniProt Q13324)
Construct: expressed in transfected cells
Sequence (Q13324 1-411): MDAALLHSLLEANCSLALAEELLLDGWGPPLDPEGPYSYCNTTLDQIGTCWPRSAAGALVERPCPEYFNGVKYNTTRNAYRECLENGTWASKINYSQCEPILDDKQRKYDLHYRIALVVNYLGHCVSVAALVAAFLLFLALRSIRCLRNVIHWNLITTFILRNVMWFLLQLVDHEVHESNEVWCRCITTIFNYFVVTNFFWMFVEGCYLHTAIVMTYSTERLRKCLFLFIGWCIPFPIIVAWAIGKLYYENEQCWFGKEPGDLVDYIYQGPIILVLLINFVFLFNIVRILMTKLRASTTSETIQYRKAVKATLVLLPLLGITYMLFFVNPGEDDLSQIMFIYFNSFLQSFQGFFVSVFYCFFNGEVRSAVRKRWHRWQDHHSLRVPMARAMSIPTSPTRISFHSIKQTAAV
Test details: cAMP assay in h-CRHR2 transfected SK-N-MC cells
Type: cell-based
Cond: Table 12; Hill slope
No end group written: not given here.
Recorded endpoint: nH

TLSLDVPTNIMNLLFNIAKAKNLRAQAAANAHLMAQI-NH2 [SEQ ID NO: 108] | 0.82
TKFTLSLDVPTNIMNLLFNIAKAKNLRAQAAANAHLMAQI-NH2 [SEQ ID NO: 1, reference compound] | 1.18
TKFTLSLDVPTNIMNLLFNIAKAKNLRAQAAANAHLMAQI-OH [SEQ ID NO: 113, reference compound] | 1.07

(a) LSLDVPTNIMNLLFNIAKAKNLRAQAAANAHLMAQI-NH2 [SEQ ID NO: 109]
(b) KFTLSLDVPTNIMNLLFNIAKAKNLRAQAAANAHLMAQI-NH2 [SEQ ID NO: 107]
**Query** Looking at recorded values for nH, does a or b come in lower? Reply with the label of the item you choose.
**Result** a
(a: 0.74, b: 1.07)

* * *

Study system: human CRHR2 (Homo sapiens, UniProt Q13324)
Construct: expressed in transfected cells
Sequence (Q13324 1-411): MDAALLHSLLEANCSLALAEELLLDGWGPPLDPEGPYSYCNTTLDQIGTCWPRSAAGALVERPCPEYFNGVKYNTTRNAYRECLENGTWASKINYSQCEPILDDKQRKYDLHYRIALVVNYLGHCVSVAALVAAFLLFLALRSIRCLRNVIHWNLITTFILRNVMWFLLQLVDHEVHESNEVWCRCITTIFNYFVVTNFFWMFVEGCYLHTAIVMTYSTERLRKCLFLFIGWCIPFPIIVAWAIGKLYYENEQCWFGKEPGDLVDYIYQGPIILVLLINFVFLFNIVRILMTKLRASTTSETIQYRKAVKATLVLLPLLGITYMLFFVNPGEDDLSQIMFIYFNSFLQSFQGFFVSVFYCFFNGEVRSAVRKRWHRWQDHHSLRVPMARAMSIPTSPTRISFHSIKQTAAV
Test details: cAMP assay in h-CRHR2 transfected SK-N-MC cells
Format: cell-based
Cond: Table 13; h-SCP control pA50 minus test compound pA50 within same assay batch
No end group written: not given here.
Recorded endpoint: Log DR

# count of solved cases: 3
TKFTLSLDVPTNIMNLLFNIAKAKNLRAQAAANCHLMAQI-NH2 [SEQ ID NO: 35] | 0.70
TKFTLSLDVPTCIMNLLFNIAKAKNLRAQAAANAHLMAQI-NH2 [SEQ ID NO: 13] | −0.01
TKFTLSLDVPTNIMNLLFNIAKAKNLCAQAAANAHLMAQI-NH2 [SEQ ID NO: 28] | 0.16

(I) TKFTLSLDVPTNIMNLLFNIAKAKNLRACAAANAHLMAQI-NH2 [SEQ ID NO: 30]
(II) TKFCLSLDVPTNIMNLLFNIAKAKNLRAQAAANAHLMAQI-NH2 [SEQ ID NO: 5]
**Query** Out of I and II , name the one with the higher Log DR. // respond with label for picked entry
**Result** I

* * *

Study system: human CRHR2 (Homo sapiens)
Construct: expressed in transfected cells
Test details: cAMP assay in h-CRHR2 transfected SK-N-MC cells
Assay type: cell-based
Cond: tested as antagonists of h-SCP at 10 μM; read-out: receptor affinity (KA)
No end group written: not given here.
# Lookup of reported Kd keyed by entry

DVPTNIMNLLFNIAKAKNLRAQAAANAHLMAQI-NH2 [SEQ ID NO: 112] | < 10 µM
LDVPTNIMNLLFNIAKAKNLRAQAAANAHLMAQI-NH2 [SEQ ID NO: 111] | < 10 µM

Turning now to a further record.
For reference, reported Kd for SLDVPTNIMNLLFNIAKAKNLRAQAAANAHLMAQI-NH2 [SEQ ID NO: 110] stands at < 10 µM

* * *

Study system: human CRHR2 (Homo sapiens, UniProt Q13324)
Construct: expressed in transfected cells
Test details: cAMP assay in h-CRHR2 transfected SK-N-MC cells
Type: cell-based
Cond: Table 13; h-SCP control pA50 minus test compound pA50 within same assay batch
No end group written: not given here.
Recorded endpoint: Log DR

// below: answered substances
TKFTLSLDVPTNIMNLLFNCAKAKNLRAQAAANAHLMAQI-NH2 [SEQ ID NO: 21] | 0.77
TKFTLSLDVPTNIMNLLFNIAKAKNLRAQAAANACLMAQI-NH2 [SEQ ID NO: 36] | 0.42
TKFTLSLDVPTNIMNLLFNIAKACNLRAQAAANAHLMAQI-NH2 [SEQ ID NO: 25] | 0.35
TKFTLSLCVPTNIMNLLFNIAKAKNLRAQAAANAHLMAQI-NH2 [SEQ ID NO: 9] | 1.89
TKCTLSLDVPTNIMNLLFNIAKAKNLRAQAAANAHLMAQI-NH2 [SEQ ID NO: 4] | 1.03
TKFTCSLDVPTNIMNLLFNIAKAKNLRAQAAANAHLMAQI-NH2 [SEQ ID NO: 6] | 0.61

(P) TKFTLSLDVPCNIMNLLFNIAKAKNLRAQAAANAHLMAQI-NH2 [SEQ ID NO: 12]
(Q) TKFTLSLDVPTNIMNLLFNIAKAKNCRAQAAANAHLMAQI-NH2 [SEQ ID NO: 27]
(R) TKFTLSLDVPTNIMNLLFNIAKAKCLRAQAAANAHLMAQI-NH2 [SEQ ID NO: 26]
**Query** Rank by Log DR (largest to smallest). List each label, following the requested order.
**Result** P, Q, R
(P: 1.72, Q: 0.76, R: 0.08)

* * *

Study system: human CRHR2 (Homo sapiens, UniProt Q13324)
Construct: expressed in transfected cells
Sequence (Q13324 1-411): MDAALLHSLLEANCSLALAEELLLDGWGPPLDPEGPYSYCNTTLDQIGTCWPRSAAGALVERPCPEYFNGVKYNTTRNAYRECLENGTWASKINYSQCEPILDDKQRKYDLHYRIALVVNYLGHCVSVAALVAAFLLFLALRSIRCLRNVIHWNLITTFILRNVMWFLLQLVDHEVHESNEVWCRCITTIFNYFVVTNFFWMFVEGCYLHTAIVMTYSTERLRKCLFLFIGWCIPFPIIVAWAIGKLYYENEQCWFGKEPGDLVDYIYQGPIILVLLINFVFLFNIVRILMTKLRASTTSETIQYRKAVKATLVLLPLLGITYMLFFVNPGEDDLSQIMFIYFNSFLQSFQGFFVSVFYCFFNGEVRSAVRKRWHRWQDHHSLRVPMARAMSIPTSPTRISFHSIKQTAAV
Test details: cAMP assay in h-CRHR2 transfected SK-N-MC cells
Format: cell-based
Cond: Table 13; h-SCP control pA50 minus test compound pA50 within same assay batch
Procedure: The concentration required for 50% maximum effect (A50) was 0.4 nM. Human CRHR1 (accession number X72304) or CRHR2 (accession number U34587) were cloned into pcDNA3.1/Zeo expression vector and stably transfected into SK-N-MC cells by electroporation. […] Media containing released intracellular cAMP was transferred to a 96-well flash plate coated with scintillant fluid containing an anti-cAMP antibody. […] [^125I]-cAMP was measured on a TopCount scintillation counter (Perkin Elmer, MA, U.S.A). […]
No end group written: not given here.
Recorded endpoint: Log DR

Example entries and their recorded answers appear below.
TKFTLSLDVPTNIMNLLFNIAKAKNLRAQAAANAHLMCQI-NH2 [SEQ ID NO: 39] | 0.41
TKFTLSLDVPTNIMNLLCNIAKAKNLRAQAAANAHLMAQI-NH2 [SEQ ID NO: 19] | 1.67

(P) TKFTLSLDVPTNIMNLLFNIAKAKNLRAQAAANAHLMACI-NH2 [SEQ ID NO: 40]
(Q) TKFTLSLDCPTNIMNLLFNIAKAKNLRAQAAANAHLMAQI-NH2 [SEQ ID NO: 10]
**Query** Which of the two items, P and Q , has the greater recorded Log DR? Choose, then provide that item's label.
**Result** Q
